Assay read-out pIC50; system under study: TEAD1 protein (YAP Binding Domain) (Homo sapiens, UniProt P28347).
Sequence (P28347 209-426 limits assumed): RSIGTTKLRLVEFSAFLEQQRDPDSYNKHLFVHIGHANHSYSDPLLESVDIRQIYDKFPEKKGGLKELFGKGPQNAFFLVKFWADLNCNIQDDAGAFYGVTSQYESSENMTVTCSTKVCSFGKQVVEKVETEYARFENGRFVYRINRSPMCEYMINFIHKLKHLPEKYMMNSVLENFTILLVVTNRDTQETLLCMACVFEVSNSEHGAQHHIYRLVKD
pIC50: −log10 of the molar value.

Recorded pIC50, per entry:
{"Compound": "C=CC(=O)Nc1ccc(OCc2ccc(F)c(F)c2)c(C#N)c1", "Metric": "pIC50", "Measurement": "5.70 to 6.30"}
{"Compound": "C=C(F)C(=O)Nc1ccc(OCC2CCC(F)(F)CC2)c(F)c1", "Metric": "pIC50", "Measurement": "6.30 to 6.60"}
{"Compound": "C=CC(=O)Nc1ccc(OCc2cccnc2Cl)c(F)c1", "Metric": "pIC50", "Measurement": "< 5.70"}
{"Compound": "C=CC(=O)Nc1ccc(OCc2ccc(C(F)(F)F)cc2Cl)c(F)c1", "Metric": "pIC50", "Measurement": "< 5.70"}
{"Compound": "C=CC(=O)Nc1ccc2c(c1)CCC(c1cccc(F)c1)O2 (centres unmarked)", "Metric": "pIC50", "Measurement": "< 5.70"}

Q: API: value(readout= pIC50, system= TEAD1 protein (YAP Binding Domain) (Homo sapiens, UniProt P28347), query= C=CC(=O)Nc1ccc(OCc2cc(OC)ccc2Cl)c(F)c1 )
Ans: 6.30 to 6.60

Q: API: value(readout= pIC50, system= TEAD1 protein (YAP Binding Domain) (Homo sapiens, UniProt P28347), query= C=CC(=O)Nc1ccc(OCc2ccc(Br)nc2)c(F)c1 )
Ans: 5.70 to 6.30

Q: API: value(readout= pIC50, system= TEAD1 protein (YAP Binding Domain) (Homo sapiens, UniProt P28347), query= C=CC(=O)Nc1ccc(OCc2ccccc2Cl)c(F)c1 )
Ans: 5.70 to 6.30

Q: API: value(readout= pIC50, system= TEAD1 protein (YAP Binding Domain) (Homo sapiens, UniProt P28347), query= C=CC(=O)Nc1ccc(OCc2ccc(C#N)cc2Cl)c(F)c1 )
Ans: < 5.70

Q: API: value(readout= pIC50, system= TEAD1 protein (YAP Binding Domain) (Homo sapiens, UniProt P28347), query= C=CC(=O)Nc1ccc(Oc2ccc(F)cc2)c(F)c1 )
Ans: ≥ 6.60

Q: API: value(readout= pIC50, system= TEAD1 protein (YAP Binding Domain) (Homo sapiens, UniProt P28347), query= C=CC(=O)Nc1ccc(OCc2c(Cl)cccc2Cl)c(F)c1 )
Ans: < 5.70

Q: API: value(readout= pIC50, system= TEAD1 protein (YAP Binding Domain) (Homo sapiens, UniProt P28347), query= C=CC(=O)Nc1ccc(OCC2CCC(F)(F)CC2)c(C#N)c1 )
Ans: ≥ 6.60

Q: API: value(readout= pIC50, system= TEAD1 protein (YAP Binding Domain) (Homo sapiens, UniProt P28347), query= C=CC(=O)Nc1cc2nc(CCC(C)C)oc2cc1F )
Ans: 6.30 to 6.60

Q: API: value(readout= pIC50, system= TEAD1 protein (YAP Binding Domain) (Homo sapiens, UniProt P28347), query= C=CC(=O)Nc1ccc(Nc2ccc(F)cc2)c(F)c1 )
Ans: < 5.70

Q: API: value(readout= pIC50, system= TEAD1 protein (YAP Binding Domain) (Homo sapiens, UniProt P28347), query= C=CC(=O)Nc1ccc2c(c1)OC(C)(c1cccc(C(F)(F)F)c1)O2 (centres unmarked) )
Ans: ≥ 6.60

Q: API: value(readout= pIC50, system= TEAD1 protein (YAP Binding Domain) (Homo sapiens, UniProt P28347), query= C=CC(=O)Nc1ccc(OCc2cccc(F)c2)cc1 )
Ans: < 5.70

Q: API: value(readout= pIC50, system= TEAD1 protein (YAP Binding Domain) (Homo sapiens, UniProt P28347), query= C=CC(=O)Nc1ccc(OCc2ccc(F)c(F)c2)c(F)c1 )
Ans: ≥ 6.60

Q: API: value(readout= pIC50, system= TEAD1 protein (YAP Binding Domain) (Homo sapiens, UniProt P28347), query= C=CC(=O)Nc1ccc(N(Cc2cccc(F)c2)CC2CC2)c(F)c1 )
Ans: ≥ 6.60

Q: API: value(readout= pIC50, system= TEAD1 protein (YAP Binding Domain) (Homo sapiens, UniProt P28347), query= C=CC(=O)Nc1ccc(OCC2CCCC(C(F)(F)F)C2)c(F)c1 (centres unmarked) )
Ans: ≥ 6.60

Q: API: value(readout= pIC50, system= TEAD1 protein (YAP Binding Domain) (Homo sapiens, UniProt P28347), query= C=CC(=O)Nc1cc2nc(CC3CC3)oc2cc1F )
Ans: < 5.70

Origin of the recorded values: patent US20230115350A1
